assayed system: human muscarinic M3 receptors (Homo sapiens, UniProt P20309)
Construct: host or cells: A9L cells
Sequence (P20309 whole entry): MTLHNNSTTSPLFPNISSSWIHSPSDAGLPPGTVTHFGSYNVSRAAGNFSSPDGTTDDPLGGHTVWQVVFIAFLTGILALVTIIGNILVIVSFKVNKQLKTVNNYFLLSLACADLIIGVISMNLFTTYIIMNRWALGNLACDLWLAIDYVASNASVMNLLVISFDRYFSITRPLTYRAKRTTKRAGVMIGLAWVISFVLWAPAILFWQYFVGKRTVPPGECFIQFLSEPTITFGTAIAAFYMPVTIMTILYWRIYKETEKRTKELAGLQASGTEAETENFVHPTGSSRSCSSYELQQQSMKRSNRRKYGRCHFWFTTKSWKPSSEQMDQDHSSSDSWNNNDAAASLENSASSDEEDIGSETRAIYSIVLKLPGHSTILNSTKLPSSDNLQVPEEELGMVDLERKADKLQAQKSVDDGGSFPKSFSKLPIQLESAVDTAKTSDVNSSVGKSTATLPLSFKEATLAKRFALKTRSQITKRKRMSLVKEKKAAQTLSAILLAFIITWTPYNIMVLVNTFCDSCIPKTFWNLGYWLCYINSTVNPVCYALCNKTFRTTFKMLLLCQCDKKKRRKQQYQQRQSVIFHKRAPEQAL
assay method text: IP production in A9L cells with human M3 receptors (IPOne TR-FRET), Example 28
Type: cell-based
experimental conditions: percentage of maximal stimulation by carbachol
Decide using huM3/A9L Smax: a value greater than or equal to 60% is 1, a smaller one is -1.

{"compound": "Cc1noc([C@H]2CNCC[C@H]2C)n1 [Compound 22]", "cat": -1}
{"compound": "Cc1noc(C2CCC(C)NC2)n1 (stereo not shown) [Compound 18]", "cat": -1}
{"compound": "Cc1noc([C@H]2CC[C@H](C)NC2)n1 [Compound 19]", "cat": -1}

Hello, I need to know if [2H]C([2H])([2H])c1noc([C@H]2CCCNC2)n1 [Compound 7a] has measured huM3/A9L Smax not below 60%. Thanks!
1

Decide: huM3/A9L Smax of Cc1noc([C@@H]2CNCC[C@H]2C)n1 [Compound 23] >= 60%?
-1

Check if huM3/A9L Smax >= 60% (inclusive). Item: Cc1noc([C@H]2CCCNC2)n1 [Compound 3a]
1

Can [2H]C([2H])([2H])c1noc([C@@H]2CCCNC2)n1 [Compound 7b] be said to have huM3/A9L Smax at or above 60%?
1

Hi team, for Cc1noc([C@H]2CNC[C@@H](C)C2)n1 [Compound 20] , is the recorded huM3/A9L Smax at or above 60%?
-1

Could you please find out whether Cc1noc([C@@H]2CNC[C@@H](C)C2)n1 [Compound 21] has huM3/A9L Smax that meets 60% or exceeds it?
-1

Answer whether huM3/A9L Smax of Cc1noc(C2=CCCN(C)C2)n1 [Compound 36] is greater than or equal to 60%.
-1

Check if huM3/A9L Smax >= 60% (inclusive). Item: Cc1nsc(C2CCCNC2)n1.Cl (stereo not shown) [Compound 12a]
-1

Threshold query (huM3/A9L Smax >= 60%) on Cc1noc([C@@H]2CCCN[C@@H]2C)n1 [Compound 24]
-1

Decide: huM3/A9L Smax of Cc1noc(C2(F)CCCNC2)n1 (stereo not shown) [Compound 35] >= 60%?
1

----------
assayed system: human muscarinic M3 receptors (Homo sapiens, UniProt P20309)
Construct: host or cells: A9L cells
Type: cell-based
experimental conditions: relative to the potency of carbachol at its EC50
Rule: measured huM3/A9L Potency relative to carbachol below 0.4 gets yes; anything equal to or greater than 0.4 gets no.

Please review the entries below; each comes with its answer.
{"compound": "[2H]C1([2H])NC[C@]2(c3nc(C)no3)C[C@H]12 [Compound 122b]", "assayed system": "human muscarinic M3 receptors (Homo sapiens, UniProt P20309)", "cat": "no"}
{"compound": "Cc1noc([C@@]23CNC[C@@H]2C3)n1 [Compound 106a]", "assayed system": "human muscarinic M3 receptors (Homo sapiens, UniProt P20309)", "cat": "no"}
{"compound": "[2H]C1([2H])NC[C@@]2(c3nc(C)no3)C[C@@H]12 [Compound 122a]", "assayed system": "human muscarinic M3 receptors (Homo sapiens, UniProt P20309)", "cat": "yes"}
{"compound": "[2H]C([2H])([2H])c1noc(C23CNCC2C3)n1 (centres unmarked)", "assayed system": "human muscarinic M3 receptors (Homo sapiens, UniProt P20309)", "cat": "yes"}
{"compound": "Cc1noc(C23CNCC2C3)n1 (racemic) [Compound 121]", "assayed system": "human muscarinic M3 receptors (Homo sapiens, UniProt P20309)", "cat": "no"}
{"compound": "[2H]C1([2H])NC([2H])([2H])C2(c3nc(C)no3)CC12 (centres unmarked)", "assayed system": "human muscarinic M3 receptors (Homo sapiens, UniProt P20309)", "cat": "yes"}
{"compound": "Cc1noc([C@]23CNC[C@H]2C3)n1 [Compound 106b]", "assayed system": "human muscarinic M3 receptors (Homo sapiens, UniProt P20309)", "cat": "yes"}
{"compound": "[2H]C([2H])([2H])c1noc(C23CNC([2H])([2H])C2C3)n1 (centres unmarked) [Compound 136]", "assayed system": "human muscarinic M3 receptors (Homo sapiens, UniProt P20309)", "cat": "no"}
{"compound": "Cc1noc(C23CNCC2C3)n1 (racemic) [Compound 105]", "assayed system": "human muscarinic M3 receptors (Homo sapiens, UniProt P20309)", "cat": "yes"}
{"compound": "[2H]C([2H])([2H])c1noc(C23CNC([2H])([2H])C2C3)n1 (centres unmarked) [Compound 135]", "assayed system": "human muscarinic M3 receptors (Homo sapiens, UniProt P20309)", "cat": "no"}

Continue with the compound presented below.
Threshold test, huM3/A9L Potency relative to carbachol < 0.4: [2H]C([2H])([2H])c1noc(C23CNC([2H])([2H])C2C3)n1 (centres unmarked) [Compound 137]
yes
